Each recorded value in this set is attributed to patent US20180208675A1.

- assay.system: T1, human TFPI alpha (full-length TFPIα) (human, UniProt P10646 29-304)
- T1 construct: Analyte in SPR and added to plasma (2 or 20 nM) in thrombin generation assays; also called human TFPIα
- assay.text: SPR (Biacore T200), Fab captured on Human Fab Binder, TFPIα in solution, 1:1 fit
assay.metric: koff (s⁻¹)
# output: bare number, implied unit s⁻¹

>  <binder>
Fab 0089 (Fab fragment of mAb 4F110) (Fab, V domains shown, Chimeric mouse/human Fab; HC truncated after the hinge cysteine; KPI-3 specific) VH: QVQLQQSGAELVKPGASVKLSCKASGYTFISYYMYWVKQRPGQGLEWIGEINPSNGDTNLNEKFKSKATLTVDKSSSTVYMQLSSLTSEDSAVYYCTRWDRFDGFVYWGQGTLVTVSA VL: ETTVTQSPASLSMAIGGKVTIRCIISTNIDDDINWYQQKPGEPPKLLISEGNTLRPGVPSRFSSSGYGTDFVFTIENMLSEDVADYYCLQSDDLPYTFGGGTKLEIKR

>  <obs.value>
0.00057

$$$$
>  <binder>
Fab 0088 (Fab fragment of mAb 2021) (Fab, V domains shown, free C-terminal cysteine; KPI-2 specific) VH: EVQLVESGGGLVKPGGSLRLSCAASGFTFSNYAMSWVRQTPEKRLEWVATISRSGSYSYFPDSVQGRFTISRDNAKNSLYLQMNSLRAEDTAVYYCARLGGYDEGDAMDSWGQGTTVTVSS VL: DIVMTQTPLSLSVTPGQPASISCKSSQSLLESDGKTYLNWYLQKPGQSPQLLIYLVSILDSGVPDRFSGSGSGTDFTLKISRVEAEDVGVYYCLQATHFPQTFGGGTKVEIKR

>  <obs.value>
0.0001

$$$$
>  <binder>
Fab 0094 (Fab fragment of mAb 2007) (Fab, V domains shown, KPI-2 specific) VH: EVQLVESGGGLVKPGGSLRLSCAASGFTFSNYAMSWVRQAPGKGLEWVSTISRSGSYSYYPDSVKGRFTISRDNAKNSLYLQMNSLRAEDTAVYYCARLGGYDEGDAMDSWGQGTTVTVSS VL: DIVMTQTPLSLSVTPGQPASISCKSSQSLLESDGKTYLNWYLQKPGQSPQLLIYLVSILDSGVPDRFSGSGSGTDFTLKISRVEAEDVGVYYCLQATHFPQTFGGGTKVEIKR

>  <obs.value>
0.00066

$$$$
>  <binder>
Fab 0095 (Fab fragment of mAb 2014) (Fab, V domains shown, KPI-2 specific) VH: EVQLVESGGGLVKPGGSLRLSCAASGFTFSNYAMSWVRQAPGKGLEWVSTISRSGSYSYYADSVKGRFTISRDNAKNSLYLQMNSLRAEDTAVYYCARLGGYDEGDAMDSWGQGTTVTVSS VL: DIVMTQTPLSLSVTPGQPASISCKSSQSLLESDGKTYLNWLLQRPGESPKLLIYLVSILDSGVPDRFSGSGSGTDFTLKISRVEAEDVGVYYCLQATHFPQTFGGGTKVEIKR

>  <obs.value>
0.003

$$$$

Consider the binder Fab 0313 (Fab fragment of mAb 2000) (Fab, V domains shown, Fab of the initial grafted HzTFPI4F36; KPI-2 specific) VH: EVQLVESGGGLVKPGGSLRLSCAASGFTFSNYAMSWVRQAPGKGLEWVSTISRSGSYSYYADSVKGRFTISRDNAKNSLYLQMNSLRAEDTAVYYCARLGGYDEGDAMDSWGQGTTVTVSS VL: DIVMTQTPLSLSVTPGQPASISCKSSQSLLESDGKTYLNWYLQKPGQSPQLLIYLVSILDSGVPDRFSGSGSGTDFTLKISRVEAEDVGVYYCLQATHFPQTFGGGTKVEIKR and give its recorded koff.
0.0021
